assay: Induction of anti-CD3/CD28 antibodies-stimulated human T cell activation at 1 uM assessed fold increase in CD25 expression measured by ELISA assay; type: functional, T cell line
EXPERIMENTAL ENDPOINT: fold change (FC)
Answer as a number with no unit attached.

Form: compound = Cn1cnnc1CC1(c2cccc(N3Cc4c(cc(CN5CCS(=O)(=O)CC5)cc4C(F)(F)F)C3=O)c2)COC1 ; fold change (FC) = 1.01

Form: compound = C[C@H](Cc1nncn1C)c1cc(C2CCOCC2)nc(N2Cc3c(cccc3C(F)(F)F)C2=O)c1 ; fold change (FC) = 1.01

Form: compound = Cn1cnnc1CC1(c2cccc(NC(=O)c3nc4c(C(F)(F)F)cccc4[nH]3)c2)COC1 ; fold change (FC) = 1.51

Form: compound = C[C@H](Cc1nncn1C)c1cccc(N2Cc3c(cc(C(=O)N4CC(O)C4)cc3C(F)(F)F)C2=O)c1 ; fold change (FC) = 1.01

----------
assay: Induction of anti-CD3/CD28 antibodies-stimulated human T cell activation at 0.3 uM assessed fold increase in IL-2 secretion measured by ELISA assay; format: functional, T cell line
Provide the recorded fold change (FC) for the entries that follow.
Answer as a number with no unit attached.

Form: compound = Cn1cnnc1[C@@H](F)C1(c2cccc(N3Cc4c(cc(CN5[C@H]6CC[C@H]5CC(F)C6)cc4C(F)(F)F)C3=O)c2)COC1 (some centres undefined) ; fold change (FC) = 2.51

Form: compound = C[C@H](Sc1nncn1C)c1cccc(NC(=O)c2cc(C(C)(C)O)c(Cl)cn2)c1 ; fold change (FC) = 1.01

Form: compound = COc1ccc(C(=O)Nc2cccc([C@H](C)Sc3nncn3C)c2)nc1C1CC1 ; fold change (FC) = 1.01

----------
test: Induction of anti-CD3/CD28 antibodies-stimulated human T cell activation at 1 uM assessed fold increase in IL-2 secretion measured by ELISA assay; assay type: functional, T cell line
EXPERIMENTAL ENDPOINT: fold change (FC)

Record excerpt, results attached:
COMPOUND	EXPERIMENTAL ENDPOINT	MEASURED VALUE
C[C@H](Cc1nncn1C)c1cccc(NC(=O)c2cc(C3CC3)cc(C(F)(F)F)n2)c1	fold change (FC)	5
Cn1cnnc1CC1(c2cccc(NC(=O)c3cc(CN4CCCCC4)nc(C4CC4)n3)c2)COC1	fold change (FC)	>=7.5
C[C@@H]1CN(Cc2cc3c(c(C(F)(F)F)c2)CN(c2cccc(C4(Cc5nncn5C)COC4)c2)C3=O)CCO1	fold change (FC)	>=7.5
Cn1cnnc1CC1(c2cccc(N3Cc4c(cc(N5CCC(C(F)F)C5)cc4C(F)(F)F)C3=O)c2)COC1 (centres undefined)	fold change (FC)	2.51
Cc1cc(C(=O)Nc2cccc([C@H](C)Sc3nncn3C)c2)nc2ccccc12	fold change (FC)	1.01

Form: compound = C[C@H](Cc1nncn1C)c1cc(OC2COC2)nc(N2Cc3c(cccc3C(F)(F)F)C2=O)c1 ; fold change (FC) = 1.01

Form: compound = C[C@H](Cc1nncn1C)c1cccc(NC(=O)c2cc(S(C)(=O)=O)cc(C3CC3)n2)c1 ; fold change (FC) = 1.01

Form: compound = Cn1cnnc1CC1(c2cccc(N3Cc4c(cc(CN5CCOC6(CCC6)C5)cc4C(F)(F)F)C3=O)c2)COC1 ; fold change (FC) = >=7.5

Form: compound = CC(O)c1cc2c(c(C(F)(F)F)c1)CN(c1cccc([C@H](C)Cc3nncn3C)c1)C2=O (some centres undefined) ; fold change (FC) = 5

Form: compound = C[C@H](Cc1nncn1C)c1cccc(N2Cc3c(ccnc3C3CC3)C2=O)c1 ; fold change (FC) = 1.01

----------
experiment: Induction of activation of human CD56+ CD3- NK cells co-cultured with human K562 cells in 1:1 ratio and assessed as increase in TNF-alpha secretion at 2.5 uM measured by ELISA assay; type: functional, Natural killer cell
EXPERIMENTAL ENDPOINT: fold change (FC)
Answer as a number with no unit attached.

Form: molecule = Cn1cnnc1C(F)(F)[C@](C)(F)c1cccc(N2Cc3c(cc(N4CCNCC4)cc3C(F)(F)F)C2=O)c1 ; fold change (FC) = 2.01

Form: molecule = Cn1cnnc1CC1(c2cccc(NC(=O)c3cc(CN4CCC5(CC5)C4)cc(C4CC4)n3)c2)COC1 ; fold change (FC) = 1.01

Form: molecule = C[C@H](Cc1nncn1C)c1cccc(NC(=O)c2cccc(CCO)n2)c1 ; fold change (FC) = 1.01

----------
assay: Induction of anti-CD3/CD28 antibodies-stimulated human T cell activation at 0.3 uM assessed fold increase in CD25 expression measured by ELISA assay; type: functional, T cell line
EXPERIMENTAL ENDPOINT: fold change (FC)
Answer as a number with no unit attached.

Form: compound = Cn1cnnc1CC1(c2cccc(N3Cc4c(cc(CN5Cc6ccccc6C5)cc4C(F)(F)F)C3=O)c2)COC1 ; fold change (FC) = 1.31

Form: compound = C[C@H](Cc1nncn1C)c1cccc(NC(=O)c2cccc(C(F)(F)CO)n2)c1 ; fold change (FC) = 1.01

Form: compound = CN1C[C@H]2CC[C@@H](C1)N2c1cc(C(=O)Nc2cccc(C3(Cc4nncn4C)COC3)c2)nc(C2CC2)n1 ; fold change (FC) = 1.31

Form: compound = CC1OCC1Oc1cc([C@H](C)Cc2nncn2C)cc(N2Cc3c(cccc3C(F)(F)F)C2=O)n1 (some centres not stated) ; fold change (FC) = 1.01

Form: compound = C[C@H](Cc1nncn1C)c1cccc(N2Cc3c(cc(CN4CCC(F)(F)C4)cc3C(F)(F)F)C2=O)c1 ; fold change (FC) = 1.01

Form: compound = C[C@H](Cc1nncn1C)c1cccc(NC(=O)c2cc(C(=O)N3C[C@@H](O)C[C@H]3C)ccn2)c1 ; fold change (FC) = 1.01

Form: compound = Cn1cnnc1CC1(c2cccc(N3Cc4c(cc(CN5CCCC6CC65)cc4C(F)(F)F)C3=O)c2)COC1 (configuration not stated) ; fold change (FC) = 1.01

Form: compound = Cc1cc(C(=O)Nc2cccc(-c3c(-c4nncn4C)cnn3C)c2)nc(C2CC2)n1 ; fold change (FC) = 1.01

Form: compound = C[C@H](Cc1nncn1C)c1cccc(N2Cc3c(cc(CN4CC(O)C(F)(F)C4)cc3C(F)(F)F)C2=O)c1 (some centres not stated) ; fold change (FC) = 1.01

Form: compound = Cn1cnnc1CC1(c2cccc(N3Cc4c(cc(CN5CCOC6(CCC6)C5)cc4C(F)(F)F)C3=O)c2)COC1 ; fold change (FC) = 1.01

Form: compound = C[C@H](Cc1nncn1C)c1cccc(NC(=O)c2[nH]nc3c2CCCC3)c1 ; fold change (FC) = 1.01

Form: compound = C[C@H](Sc1nncn1C)c1cccc(NC(=O)c2cccc(C3CC3)n2)c1 ; fold change (FC) = 1.31

Form: compound = Cn1cnnc1C(F)(F)[C@](C)(F)c1cccc(N2Cc3c(cc(CN4C[C@@H](F)[C@@H](F)C4)cc3C(F)(F)F)C2=O)c1 ; fold change (FC) = 1.31

Form: compound = C[C@H](O)CNc1cc([C@H](C)Cc2nncn2C)cc(N2Cc3c(cccc3C(F)(F)F)C2=O)n1 ; fold change (FC) = 1.01

----------
test: Induction of anti-CD3/CD28 antibodies-stimulated human T cell activation at 1.11 uM assessed fold increase in GM-CSF secretion measured by ELISA assay; format: functional, T cell line
EXPERIMENTAL ENDPOINT: fold change (FC)

Record excerpt, results attached:
MOLECULE	MEASURED VALUE
C[C@H](Cc1nncn1C)c1cccc(N2Cc3c(cc(CN4CC[C@](C)(O)C4)cc3C(F)(F)F)C2=O)c1	2.01
C[C@H](Cc1nncn1C)c1cccc(NC(=O)c2cccc(CCO)n2)c1	<=1.5
COC1CN(Cc2cc3c(c(C(F)(F)F)c2)CN(c2cccc([C@@](C)(F)C(F)(F)c4nncn4C)c2)C3=O)C1	2.01
Cc1cc(C(=O)Nc2cccc([C@H](C)Cc3nncn3C)c2)nc(C2CC2)n1	>4
Cn1cnnc1[C@@H]1C[C@@H]1c1cccc(N2Cc3c(cccc3C(F)(F)F)C2=O)c1	1.51
C[C@H](Cc1nncn1C)c1cccc(NC(=O)c2n[nH]c3c2CCC3)c1	<=1.5

Form: molecule = C[C@H](Cc1nncn1C)c1cccc(NC(=O)c2cc3cc(N4CCNCC4)ccc3cn2)c1.Cl ; fold change (FC) = 1.51

----------
assay: Induction of anti-CD3/CD28 antibodies-stimulated human T cell activation at 4 uM assessed fold increase in IL-2 secretion measured by ELISA assay; format: functional, T cell line
EXPERIMENTAL ENDPOINT: fold change (FC)
Answer as a number with no unit attached.

Form: compound = C[C@H](Cc1nncn1C)c1cccc(N2Cc3c(cc(C(=O)N4CC[C@H](O)C4)cc3C3CC3)C2=O)c1 ; fold change (FC) = 2.51

Form: compound = C[C@H](Cc1nncn1C)c1cc(N[C@@H](C)CO)nc(N2Cc3c(cccc3C(F)(F)F)C2=O)c1 ; fold change (FC) = 2.51

Form: compound = C[C@H](Sc1nncn1C)c1cccc(NC(=O)c2ccnc(C(F)(F)F)n2)c1 ; fold change (FC) = 1.01
